- measurementProtocol: inhibition of 3D7 malaria parasite growth – strain 3D7 (AID 2306);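 note: 0% = DMSO wells and 100% = chloroquine plus artemisinin control wells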
- condition: P. falciparum 3D7 erythrocytic growth, LDH absorbance, 72 h; at 2 µM; stronger effect = higher value
Active and inactive are the calls of the source. The rule behind the calls is not given here.
parameterMeasured: growth inhibition

{"molecule": "Cc1cc(F)ccc1-c1nc(NCC(O)CNCCc2ccccc2)nc2c1ccc(=O)n2-c1c(F)cccc1F (configuration not stated)", "readoutValue": "100% (active)"}
{"molecule": "CCc1cn2c3c(cc(C(=O)N[C@@H](Cc4ccccc4)[C@H](O)CNC4CCOCC4)cc13)N(CC(F)(F)F)S(=O)(=O)CC2", "readoutValue": "98% (active)"}
{"molecule": "CCN(CC)C(=O)C1CCCN(C(=O)Nc2cc(C(F)(F)F)cc(C(F)(F)F)c2)C1 (configuration not stated)", "readoutValue": "86% (active)"}
{"molecule": "CCCC1(NC[C@@H](O)[C@H](Cc2ccccc2)NC(=O)c2cc(NCC)cc(N3CCCCS3(=O)=O)c2)CC1", "readoutValue": "98% (active)"}
{"molecule": "CCNC(=O)Nc1cccc(-c2cccc(-c3nc4c(C)cccc4[nH]3)c2)c1", "readoutValue": "85% (active)"}
{"molecule": "O=C(Cn1c(SCc2cccc(F)c2F)cc(=O)c2ccccc21)N(CCCn1ccnc1)Cc1ccc(-c2ccc(C(F)(F)F)cc2)cc1", "readoutValue": "99% (active)"}
{"molecule": "COc1cc(-c2cc3cc(Cl)c(Cl)cc3[nH]2)ccc1C(=O)NCCC1CCCN1C (configuration not stated)", "readoutValue": "91% (active)"}
{"molecule": "COc1ccc(CN(C)CCOc2ccc(NC(=O)c3cccc4c(=O)cc(-c5ccccc5)[nH]c34)cc2)cc1OC", "readoutValue": "98% (active)"}
{"molecule": "CN(C)S(=O)(=O)c1ccc(Nc2nc(NCCC3C=NC=N3)nc3cc[nH]c(=O)c23)cc1 (configuration not stated)", "readoutValue": "96% (active)"}
{"molecule": "CN1CCN(c2nc(NCCc3ccc(O)cc3)nc(NCc3ccccc3-c3ccc(C(F)(F)F)cc3)n2)CC1", "readoutValue": "90% (active)"}
{"molecule": "CCc1[nH]nc(C(=O)NC2CCN(CC3(c4ccc(OC)cc4)CCCCC3)CC2)c1C", "readoutValue": "90% (active)"}
{"molecule": "Cc1cc(Nc2ccccc2)nc(Nc2ccccc2)n1", "readoutValue": "96% (active)"}
{"molecule": "CCCNCc1ccc(-c2ccc(CN(CCOC)C(=O)c3ccccc3)cc2)nc1", "readoutValue": "94% (active)"}
{"molecule": "CC(C)CN(c1nc(C(=O)NNC(=O)[C@H](CC2CC2)NC(=O)c2cc3cc(OCCN(C)C)ccc3o2)cs1)C1CC1", "readoutValue": "87% (active)"}
{"molecule": "COc1ccc(CCc2ccc(-c3c(C)[nH]c(C)c(Cl)c3=O)cc2)cc1", "readoutValue": "98% (active)"}
{"molecule": "Cc1cc(N(C)C2CCN(C)C2)nc(Nc2ccccc2Cl)n1 (configuration not stated)", "readoutValue": "100% (active)"}
{"molecule": "O=C(NC1CCC(N2CCCC(OCc3ccccc3)C2)CC1)c1cc2ccccc2[nH]1 (configuration not stated)", "readoutValue": "94% (active)"}
{"molecule": "Oc1ccc(Nc2nc(N3CCCC3)c3ccccc3n2)cc1", "readoutValue": "102% (active)"}
{"molecule": "OCCN1CCN(c2nc(Nc3cccc(F)c3)c3cnn(-c4ccccc4)c3n2)CC1", "readoutValue": "100% (active)"}
{"molecule": "c1cc(Nc2nc(-c3ccc(-c4csc(Nc5ccncc5)n4)cc3)cs2)ccn1", "readoutValue": "100% (active)"}
{"molecule": "CC[C@H](NC(=O)c1c(CCCN2CCN(c3ccccc3)CC2)c(-c2ccccc2)nc2cc(O)ccc12)c1ccccc1", "readoutValue": "96% (active)"}
{"molecule": "CC(C)=CCN1CCC(C(=O)Nc2ccc(-c3nc4ccccc4[nH]3)cc2)CC1", "readoutValue": "95% (active)"}
{"molecule": "Cc1cnc(Nc2cccc(CCN3CCOCC3)c2)nc1NC(C)C", "readoutValue": "97% (active)"}
{"molecule": "CCn1ncc(Cl)c1CN(C)S(=O)(=O)c1ccc2ccccc2c1", "readoutValue": "101% (active)"}
{"molecule": "c1ccc(C2CCC(N3CCC(N4CCN(c5ccccc5)CC4)CC3)CC2)cc1 (configuration not stated)", "readoutValue": "97% (active)"}
{"molecule": "O=C(Cn1c(CCc2cccc(F)c2F)nc(=O)c2cccnc21)N(Cc1ccc(-c2ccc(C(F)(F)F)cc2)cc1)C1CCN(C2CCSCC2)CC1", "readoutValue": "101% (active)"}
{"molecule": "O=C(OCc1ccccn1)c1nc2ccccc2[nH]1", "readoutValue": "92% (active)"}
{"molecule": "CCN(CC)C(=NC(N)=NCCCCCCN=C(N)N=C(Nc1ccc(Cl)cc1)N(CC)CC)Nc1ccc(Cl)cc1", "readoutValue": "97% (active)"}
{"molecule": "COc1ccc2cc(C(=O)Nc3ccc4c(c3)CCN(C3CCC3)CC4)ccc2c1", "readoutValue": "101% (active)"}
{"molecule": "CN(C)c1ccc(CN2CCC(NC(=O)c3ccc(-c4ccc(N(C)C)cc4)s3)CC2)cc1", "readoutValue": "93% (active)"}
{"molecule": "COc1cc(NC(=O)c2sc(-c3ccc(Cl)cc3)cc2NC(=O)CN2CC[C@@H](O)C2)ccc1OCCN1CCCC1", "readoutValue": "90% (active)"}
{"molecule": "NC(N)=NN=Cc1ccccc1OCc1ccccc1Cl", "readoutValue": "101% (active)"}
{"molecule": "CCOC(=O)c1cc(C(=O)NCCCCN2CCC(c3ccc(CC)cc3OCC)CC2)ccc1-c1ccc(C(F)(F)F)cc1", "readoutValue": "99% (active)"}
{"molecule": "Cn1cc(C2CCN(CCCCNC(=O)c3ccc(C(=O)Nc4ccc(C#N)cc4)cc3)CC2)c2ccccc21", "readoutValue": "100% (active)"}
{"molecule": "CCOc1ccc(C2CCN(CCCCNC(=O)c3ccc(NC(=O)c4ccc(Cl)cc4)cc3)CC2)c(Cl)c1", "readoutValue": "101% (active)"}
{"molecule": "CCN(CC)c1ccc(C(c2ccc(N(CC)CC)cc2)c2cccc([N+](=O)[O-])c2)cc1", "readoutValue": "91% (active)"}
{"molecule": "N#Cc1ccc2c(c1)CCN(CCC1CCC(NC(=O)c3ccc(-c4ccccc4)s3)CC1)CC2 (configuration not stated)", "readoutValue": "99% (active)"}
